# system.under.test: LSD1 (Homo sapiens, UniProt O60341)
# procedure.text: HRP-coupled amine oxidase assay, time-dependent inactivation of LSD1
# condition: inhibitor concentration that yields half the maximal rate of inactivation
Answer each item with its documented Ki.
Numbers only, in µM.

CCOc1ccc(C2CC2N)cc1 (stereo not drawn) [compound 1]
456

Please look at the items below and tell me Ki for each one, in order.
1. NC1CC1c1cccc(OCc2ccccc2)c1 (stereo not drawn) [compound 4]
2. CC(C)Oc1ccc(C2CC2N)cc1 (stereo not drawn) [compound 2]

[760, 352]

---

# system.under.test: LSD1 (Homo sapiens, UniProt O60341)
# procedure.text: HRP-coupled amine oxidase assay, time-dependent inactivation of LSD1
# Format: biochemical
metric.name: kinact/KI (M⁻¹ s⁻¹)
Give bare numbers, in M⁻¹ s⁻¹.

CC(C)Oc1ccc(C2CC2N)cc1 (stereo not shown)
54
CCOc1ccc(C2CC2N)cc1 (stereo not shown)
45
NC1CC1c1cccc(OCc2ccccc2)c1 (stereo not shown)
33

API: the following record is the query input.
Please look up its kinact/KI: CC(C)(C)c1ccc(Sc2ccc(C3CC3N)cc2)cc1 (stereo not shown) 40

---

Answer each item with its documented pKi.
# system.under.test: MAO A (Homo sapiens)
# Sequence (P21397 whole entry, species assumed): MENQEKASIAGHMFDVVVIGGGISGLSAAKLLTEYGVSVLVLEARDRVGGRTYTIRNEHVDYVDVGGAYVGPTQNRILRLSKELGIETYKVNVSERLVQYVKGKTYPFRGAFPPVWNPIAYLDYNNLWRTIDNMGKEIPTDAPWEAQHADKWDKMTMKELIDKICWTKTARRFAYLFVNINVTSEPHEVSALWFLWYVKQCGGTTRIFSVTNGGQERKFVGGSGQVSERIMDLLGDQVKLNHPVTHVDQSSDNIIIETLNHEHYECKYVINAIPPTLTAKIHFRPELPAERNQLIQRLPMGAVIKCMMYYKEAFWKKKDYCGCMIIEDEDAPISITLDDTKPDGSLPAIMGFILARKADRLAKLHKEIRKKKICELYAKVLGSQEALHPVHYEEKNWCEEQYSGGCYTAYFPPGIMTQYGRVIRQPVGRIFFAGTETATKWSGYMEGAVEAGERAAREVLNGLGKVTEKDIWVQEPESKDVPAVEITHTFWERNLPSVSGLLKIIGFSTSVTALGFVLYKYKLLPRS
# procedure.text: HRP-coupled amine oxidase assay, time-dependent inactivation of MAO A
# condition: inhibitor concentration that yields half the maximal rate of inactivation
# Text: For example, in vitro enzymatic assays may be performed in which hydrogen peroxide generated from reoxidation of the FAD cofactor by molecular oxygen by LSD1 or MAOs is monitored, e.g., using a horseradish peroxidase (HRP) coupled assay. […] A fluorogenic substrate may be included in the reaction, which upon reaction with H2O2 produced by the enzyme produces a fluorescent substrate that may be detected. Inhibition kinetics may then be determined by appropriate fitting of the data. […]
Give bare numbers, as −log10 of the molar value.

Sample records with pKi:
NC1CC1c1ccc(Oc2ccccc2)cc1 (stereo not drawn)
4.91
CC(C)Oc1ccc(C2CC2N)cc1 (stereo not drawn)
4.71

API: the following record is the query input.
Please look up its pKi: CCOc1ccc(C2CC2N)cc1 (stereo not drawn) 5.37
